Value source: paper PMC10779987

- STUDY_SYSTEM: LmDHFR-TS (Leishmania major)
- Construct: made in house
- Sequence (P07382 whole entry): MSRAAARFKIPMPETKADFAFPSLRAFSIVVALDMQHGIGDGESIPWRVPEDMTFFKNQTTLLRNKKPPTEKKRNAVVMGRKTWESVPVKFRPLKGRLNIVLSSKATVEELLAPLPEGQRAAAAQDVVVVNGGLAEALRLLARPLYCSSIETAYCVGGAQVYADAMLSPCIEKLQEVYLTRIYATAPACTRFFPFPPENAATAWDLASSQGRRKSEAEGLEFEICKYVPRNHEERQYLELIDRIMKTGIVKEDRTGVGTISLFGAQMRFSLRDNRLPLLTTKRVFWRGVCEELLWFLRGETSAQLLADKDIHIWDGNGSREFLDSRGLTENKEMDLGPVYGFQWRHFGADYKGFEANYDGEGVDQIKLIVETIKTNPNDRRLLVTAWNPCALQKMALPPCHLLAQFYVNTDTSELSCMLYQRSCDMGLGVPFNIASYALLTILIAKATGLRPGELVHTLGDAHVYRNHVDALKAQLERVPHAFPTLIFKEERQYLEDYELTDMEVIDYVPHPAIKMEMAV
- PROCEDURE_DETAILS: LmDHFR-TS enzymatic inhibition assay (spectrophotometric standard DHFR assay)
- Assay type: biochemical
VALUE_TYPE: pIC50
Expect pIC50 as a plain number equal to -log10 of the molar concentration.

Request body: readout pIC50, system LmDHFR-TS (Leishmania major), query "COc1cc(C[C@H]2COC(=O)[C@@H]2Cc2cc(OC)c3c(c2)[C@H](CO)[C@@H](c2ccc(O)c(OC)c2)O3)ccc1O" . Return the value.
5.00

How about this molecule: "COc1ccc([C@@H]2CC(=O)c3c(O)cc(O[C@@H]4O[C@H](CO[C@@H]5O[C@@H](C)[C@H](O)[C@@H](O)[C@H]5O)[C@@H](O)[C@H](O)[C@H]4O)cc3O2)cc1O"
4.67

Follow-up item: "O=C(/C=C/c1ccc(O)c2c1[C@H](C(=O)O)[C@@H](c1ccc(O)c(O)c1)O2)O[C@H](Cc1ccc(O)c(O)c1)C(=O)O"
5.12

Would you mind doing "C[C@@H]1O[C@@H](OC[C@H]2O[C@@H](Oc3c(-c4ccc(O)c(O)c4)oc4cc(O)cc(O)c4c3=O)[C@H](O)[C@@H](O)[C@@H]2O)[C@H](O)[C@H](O)[C@H]1O" as well?
4.38

And "COc1ccc(C[C@H]2COC(=O)[C@@H]2Cc2cc(OC)c(O)c(-c3cc(C[C@H]4C(=O)OC[C@@H]4Cc4ccc(OC)c(OC)c4)cc(OC)c3O)c2)cc1OC" ?
5.21

* * *

- STUDY_SYSTEM: HsDHFR (Homo sapiens, UniProt P00374)
- Construct: purchased Merck KGaA CS0340
- Sequence (P00374 whole entry): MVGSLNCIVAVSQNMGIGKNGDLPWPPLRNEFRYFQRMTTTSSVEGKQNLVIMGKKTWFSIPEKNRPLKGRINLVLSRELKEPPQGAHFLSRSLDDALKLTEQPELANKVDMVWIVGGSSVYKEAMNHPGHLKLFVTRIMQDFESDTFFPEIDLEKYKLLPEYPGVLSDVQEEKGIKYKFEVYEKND
- PROCEDURE_DETAILS: HsDHFR enzymatic inhibition assay (spectrophotometric standard DHFR assay)
- Assay type: biochemical
- TEST_PARAMETERS: HsDHFR 2.7 nM, 0.1–128 μM test range, triplicate; read-out: HsDHFR IC50
VALUE_TYPE: IC50 (µM)
Numeric only. Scale: µM

What measured IC50 is associated with "O=C(/C=C/c1ccc(O)c2c1[C@H](C(=O)O)[C@@H](c1ccc(O)c(O)c1)O2)O[C@H](Cc1ccc(O)c(O)c1)C(=O)O" on HsDHFR (Homo sapiens, UniProt P00374)?
22.6

And "C[C@@H]1O[C@@H](OC[C@H]2O[C@@H](Oc3c(-c4ccc(O)c(O)c4)oc4cc(O)cc(O)c4c3=O)[C@H](O)[C@@H](O)[C@@H]2O)[C@H](O)[C@H](O)[C@H]1O" ?
189

Next up: "COc1cc(C[C@H]2COC(=O)[C@@H]2Cc2cc(OC)c3c(c2)[C@H](CO)[C@@H](c2ccc(O)c(OC)c2)O3)ccc1O"
44.8

Another molecule to check: O=c1cc(-c2ccc(O[C@@H]3O[C@H](CO)[C@@H](O)[C@H](O)[C@H]3O)cc2)oc2cc(O)c([C@@H]3O[C@H](CO)[C@@H](O)[C@H](O)[C@H]3O)c(O)c12 [isovitexin 4′-O-glucoside]
126

Next: "COc1ccc(C[C@H]2COC(=O)[C@@H]2Cc2cc(OC)c(O)c(-c3cc(C[C@H]4C(=O)OC[C@@H]4Cc4ccc(OC)c(OC)c4)cc(OC)c3O)c2)cc1OC"
27.9
